- Test system: Escherichia coli TOP10
- experiment-description: shrunken log2 fold change of peptide-encoding DNA abundance (4.5 h post-induction vs induction); higher = less antimicrobial activity (less host growth inhibition)
- recorded-conditions: time post-induction: 4.5 h; library: site-saturation at positions 5, 18, 19, 20
Assign classes using reported shrunken log2 fold change values and the ranges interval 1 = under -0.05, interval 2 = from -0.05 up to 0.1, interval 3 = 0.1 and over, please.

>>> df
    macromolecule_sequence  category_label
0  RRIRHRPPRLPRPRPRPRMIPRP      interval 2
1  RRIRTRPPRLPRPRPRPADNPRP      interval 1
2  RRIRERPPRLPRPRPRPVKCPRP      interval 1

Would you mind sorting RRIRMRPPRLPRPRPRPKTWPRP into the appropriate category?
interval 3

Would you mind sorting RRIRVRPPRLPRPRPRPRVHPRP into the appropriate category?
interval 3

Would you mind sorting RRIRNRPPRLPRPRPRPRDCPRP into the appropriate category?
interval 2

Would you mind sorting RRIRFRPPRLPRPRPRPHRFPRP into the appropriate category?
interval 2

Would you mind sorting RRIRQRPPRLPRPRPRPVCCPRP into the appropriate category?
interval 3

* * *

- Tested on: Escherichia coli TOP10
- experiment-description: shrunken log2 fold change of peptide-encoding DNA abundance (4.5 h post-induction vs induction); higher = less antimicrobial activity (less host growth inhibition)
- recorded-conditions: time post-induction: 4.5 h; library: site-saturation at positions 5, 18, 19, 20
Threshold rule: shrunken log2 fold change greater than or equal to -0.09 is Y; below that, N.

In [3]: df
Out[3]:
    macromolecule_sequence  category_label
0  RRIRSRPPRLPRPRPRPQYGPRP               N
1  RRIRHRPPRLPRPRPRPKILPRP               Y
2  RRIRCRPPRLPRPRPRPKEVPRP               N
3  RRIRERPPRLPRPRPRPHNPPRP               N
4  RRIRKRPPRLPRPRPRPKGGPRP               Y

Hi, just wondering whether RRIRTRPPRLPRPRPRPFDFPRP shows shrunken log2 fold change of -0.09 or higher.
N

Hi, just wondering whether RRIRVRPPRLPRPRPRPWVAPRP shows shrunken log2 fold change of -0.09 or higher.
Y

* * *

- Tested on: Escherichia coli TOP10;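 note: peptides expressed intracellularly from a pBAD plasmid library in pooled LB shake-flask culture, induced with 0.3% L-arabinose, DNA abundance read by NGS, three biological replicates, DESeq2 with apeglm shrinkage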
- experiment-description: shrunken log2 fold change of peptide-encoding DNA abundance (4.5 h post-induction vs induction); higher = less antimicrobial activity (less host growth inhibition)
- recorded-conditions: time post-induction: 4.5 h; library: site-saturation at positions 5, 18, 19, 20
Threshold rule: shrunken log2 fold change greater than or equal to -0.01 is Fulfilled; below that, Not fulfilled.

Consider the following illustrative entries.
>>> df
    macromolecule_sequence  category_label
0  RRIRWRPPRLPRPRPRPPHGPRP       Fulfilled
1  RRIRKRPPRLPRPRPRPKNMPRP   Not fulfilled
2  RRIRPRPPRLPRPRPRPQSEPRP   Not fulfilled
3  RRIRHRPPRLPRPRPRPLYIPRP   Not fulfilled
4  RRIRTRPPRLPRPRPRPEYPPRP   Not fulfilled

Hi, just wondering whether RRIRPRPPRLPRPRPRPDCDPRP shows shrunken log2 fold change of -0.01 or higher.
Fulfilled

Hi, just wondering whether RRIRLRPPRLPRPRPRPTEPPRP shows shrunken log2 fold change of -0.01 or higher.
Fulfilled

Hi, just wondering whether RRIRHRPPRLPRPRPRPDRGPRP shows shrunken log2 fold change of -0.01 or higher.
Not fulfilled

Hi, just wondering whether RRIRPRPPRLPRPRPRPEYQPRP shows shrunken log2 fold change of -0.01 or higher.
Fulfilled

Hi, just wondering whether RRIRHRPPRLPRPRPRPVGRPRP shows shrunken log2 fold change of -0.01 or higher.
Fulfilled

Hi, just wondering whether RRIRFRPPRLPRPRPRPDGCPRP shows shrunken log2 fold change of -0.01 or higher.
Not fulfilled
